Reported MIC is given for each of the following molecules.
# Tested on: Serratia marcescens IFO-3736
# method-description: Antibacterial activity, minimum inhibition concentration (method of The Chemotherapy Association, Japan)
# Type: cell-based
# measurement-conditions: Serratia marcescens, IFO3736, strain F: Serratia marcescens IFO-3736; read-out: minimum inhibition concentration
Where a name gives a salt, the structure may show the parent alone.
// note: answer is a bare numeric in µg/mL

Nc1nc(C(=CCl)C(=O)NC2C(=O)N3C(C(=O)[O-])=C(C[n+]4ccccc4)CSC23)cs1 (stereo not shown)	50
CSc1nnc(SCC2=C(C(=O)O)N3C(=O)C(NC(=O)C(=C(Cl)Cl)c4csc(N)n4)C3SC2)s1 (stereo not shown) [9-(2), sodium salt]	50

Turning now to a further record.
Req: Given the entry CC(=O)OCC1=C(C(=O)O)N2C(=O)C(NC(=O)C(=C(Cl)Cl)c3cccc(O)c3)[C@H]2SC1 (stereo partly shown) , what MIC was observed with Serratia marcescens IFO-3736?
Resp: 50

====

# Tested on: Serratia marcescens IFO-3736
# method-description: Antibacterial activity, minimum inhibition concentration (method of The Chemotherapy Association, Japan)
# Type: cell-based
# measurement-conditions: Serratia marcescens, IFO3736, strain F: Serratia marcescens IFO-3736; read-out: minimum inhibition concentration
measured-metric: MIC (µg/mL)
// note: answer is a bare numeric in µg/mL

CO/N=C(\C(=O)N[C@@H]1C(=O)N2C(C(=O)O)=C(COC(C)=O)CS[C@H]12)c1csc(N)n1 [Cefotaxime, reference compound]	0.2

Req: Which MIC is reported for this compound? CC(=O)OCC1=C(C(=O)O)N2C(=O)C(NC(=O)C(=C(Cl)Cl)c3ccco3)[C@H]2SC1 (stereo partly shown)
Resp: 100

====

# Tested on: Serratia marcescens IFO-3736
# method-description: Antibacterial activity, minimum inhibition concentration (method of The Chemotherapy Association, Japan)
# Assay type: cell-based
# measurement-conditions: Serratia marcescens, IFO3736, strain F: Serratia marcescens IFO-3736; read-out: minimum inhibition concentration
Label Condition met when MIC < 50 µg/mL; otherwise Condition not met.

CC(=O)OCC1=C(C(=O)O)N2C(=O)C(NC(=O)C(=C(Cl)Cl)c3ccc(O)cc3)[C@H]2SC1 (stereo partly drawn)	Condition not met

Req: In plain terms, does CC(=O)OCC1=C(C(=O)O)N2C(=O)C(NC(=O)C(=C(Cl)Cl)c3ccc(N)cc3)[C@H]2SC1 (stereo partly drawn) come in under 50 µg/mL for MIC?
Resp: Condition not met

Req: In plain terms, does CC(=O)OCC1=C(C(=O)O)N2C(=O)C(NC(=O)C(=C(Cl)Cl)c3ccc(Br)s3)[C@H]2SC1 (stereo partly drawn) come in under 50 µg/mL for MIC?
Resp: Condition not met

Req: In plain terms, does CC(=O)OCC1=C(C(=O)O)N2C(=O)C(NC(=O)C(=C(Cl)Cl)c3ccc(Cl)cc3)[C@H]2SC1 (stereo partly drawn) come in under 50 µg/mL for MIC?
Resp: Condition not met

====

Reported MIC is given for each of the following molecules.
# Tested on: Citrobactor freundii NIH-10018 -68
# method-description: Antibacterial activity, minimum inhibition concentration (method of The Chemotherapy Association, Japan)
# Assay type: cell-based
# measurement-conditions: strain O: Citrobactor freundii NIH-10018 -68; read-out: minimum inhibition concentration
Structures can show the parent of a compound that is named as a salt.
// note: answer is a bare numeric in µg/mL

Some solved cases for reference:
CC(=O)OCC1=C(C(=O)O)N2C(=O)C(NC(=O)C(=C(Cl)Cl)c3csc(N)n3)[C@H]2SC1 (some centres unmarked)	6.25
Cn1nnnc1SCC1=C(C(=O)O)N2C(=O)C(NC(=O)C(=CCl)c3cccs3)C2SC1 (centres unmarked)	100
CN(C)CCn1nnnc1SCC1=C(C(=O)O)N2C(=O)C(NC(=O)C(=C(Cl)Cl)c3csc(N)n3)C2SC1 (centres unmarked)	12.5
CC(=O)OCC1=C(C(=O)O)N2C(=O)C(NC(=O)C(=C(Cl)Cl)c3ccco3)[C@H]2SC1 (some centres unmarked)	50
CC1=C(C(=O)O)N2C(=O)C(NC(=O)C(=CCl)c3csc(N)n3)C2SC1 (single isomer, unassigned) [Compound 23, sodium salt]	100

Req: Which MIC is reported for this molecule? Cn1nnnc1SCC1=C(C(=O)O)N2C(=O)C(NC(=O)C(=C(Cl)Cl)c3ccsc3)C2SC1 (centres unmarked)
Resp: 100

Req: Which MIC is reported for this molecule? CSc1nnc(SCC2=C(C(=O)O)N3C(=O)C(NC(=O)C(=C(Cl)Cl)c4csc(N)n4)C3SC2)s1 (centres unmarked) [9-(2), sodium salt]
Resp: 12.5

Req: Which MIC is reported for this molecule? Nc1nc(C(=CCl)C(=O)NC2C(=O)N3C(C(=O)[O-])=C(C[n+]4ccccc4)CSC23)cs1 (centres unmarked)
Resp: 25

Req: Which MIC is reported for this molecule? Cn1nnnc1SCC1=C(C(=O)O)N2C(=O)C(NC(=O)C(=C(Cl)Cl)c3ccco3)C2SC1 (centres unmarked)
Resp: 12.5

Req: Which MIC is reported for this molecule? CO/N=C(\C(=O)N[C@@H]1C(=O)N2C(C(=O)O)=C(COC(C)=O)CS[C@H]12)c1csc(N)n1 [Cefotaxime, reference compound]
Resp: 0.2

Req: Which MIC is reported for this molecule? Cn1nnnc1SCC1=C(C(=O)O)N2C(=O)C(NC(=O)C(=CCl)c3csc(N)n3)C2SC1 (centres unmarked) [11-(3), sodium salt]
Resp: 0.78

Req: Which MIC is reported for this molecule? Cn1nnnc1SCC1=C(C(=O)O)N2C(=O)C(NC(=O)C(=C(Cl)Cl)c3csc(N)n3)C2SC1 (centres unmarked)
Resp: 6.25

Req: Which MIC is reported for this molecule? CC(=O)OCC1=C(C(=O)O)N2C(=O)C(NC(=O)C(=C(Cl)Cl)c3cccc(O)c3)[C@H]2SC1 (some centres unmarked)
Resp: 25

Req: Which MIC is reported for this molecule? CC(=O)OCC1=C(C(=O)O)N2C(=O)C(NC(=O)C(=C(Cl)Cl)c3csc(NC(=O)OC(C)(C)C)n3)C2SC1 (centres unmarked)
Resp: 25

====

# System: Staphylococcus aureus 6538-P
# method-description: Antibacterial activity, minimum inhibition concentration (method of The Chemotherapy Association, Japan)
# Assay type: cell-based
# measurement-conditions: strain A: Staphylococcus aureus 6538-P; read-out: minimum inhibition concentration
Structures can show the parent of a compound that is named as a salt.
So basically, the class depends on measured MIC, and the ranges are group 1 (below 0.4 µg/mL), group 2 (0.4 µg/mL to below 2 µg/mL), group 3 (2 µg/mL or more)

Please review the following examples before continuing.
CC(=O)OCC1=C(C(=O)O)N2C(=O)C(NC(=O)C(=C(Cl)Cl)c3ccc(Br)s3)[C@H]2SC1 (stereo partly drawn)	group 1
Cn1nnnc1SCC1=C(C(=O)O)N2C(=O)C(NC(=O)C(=C(Cl)Cl)c3ccsc3)C2SC1 (stereo not drawn)	group 1
Cn1nnnc1SCC1=C(C(=O)O)N2C(=O)C(NC(=O)C(=C(Cl)Cl)c3cccs3)C2SC1 (stereo not drawn)	group 1

Req: Where would COc1ccc(C(C(=O)NC2C(=O)N3C(C(=O)O)=C(COC(C)=O)CS[C@H]23)=C(Cl)Cl)cc1 (stereo partly drawn) land among the classes by reported MIC?
Resp: group 3

Req: Where would CC1(C)S[C@@H]2C(NC(=O)C(=C(Cl)Cl)c3cccs3)C(=O)N2[C@H]1C(=O)O (stereo partly drawn) land among the classes by reported MIC?
Resp: group 1

Req: Where would CC(=O)OCC1=C(C(=O)O)N2C(=O)C(NC(=O)C(=C(Cl)Cl)c3cccn3C)[C@H]2SC1 (stereo partly drawn) land among the classes by reported MIC?
Resp: group 2

Req: Where would CC1=C(C(=O)O)N2C(=O)C(NC(=O)C(=CCl)c3csc(N)n3)C2SC1 (single isomer, unassigned) [Compound 23, sodium salt] land among the classes by reported MIC?
Resp: group 3

Req: Where would CC(=O)OCC1=C(C(=O)O)N2C(=O)C(NC(=O)C(=C(Cl)Cl)c3csc(N)n3)[C@H]2SC1 (stereo partly drawn) land among the classes by reported MIC?
Resp: group 2

Req: Where would CC1=C(C(=O)O)N2C(=O)C(NC(=O)C(=C(Cl)Cl)c3csc(N)n3)C2SC1 (stereo not drawn) [8-(3), sodium salt] land among the classes by reported MIC?
Resp: group 3

Req: Where would CN(C)CCn1nnnc1SCC1=C(C(=O)O)N2C(=O)C(NC(=O)C(=C(Cl)Cl)c3csc(N)n3)C2SC1 (stereo not drawn) land among the classes by reported MIC?
Resp: group 3

Req: Where would CC(=O)OCC1=C(C(=O)O)N2C(=O)C(NC(=O)C(=C(Cl)Cl)c3ccc(C)cc3)[C@H]2SC1 (stereo partly drawn) land among the classes by reported MIC?
Resp: group 3

====

# Tested on: Escherichia coli NIHJ
# method-description: Antibacterial activity, minimum inhibition concentration (method of The Chemotherapy Association, Japan)
# Assay type: cell-based
# measurement-conditions: Escherichia coli, strain K: Escherichia coli NIHJ; read-out: minimum inhibition concentration
Where a name gives a salt, the structure may show the parent alone.
Label 1 when MIC < 20 µg/mL; otherwise -1.

Please review the following examples before continuing.
CC1=C(C(=O)O)N2C(=O)C(NC(=O)C(=C(Cl)Cl)c3csc(N)n3)C2SC1 (stereo not shown) [8-(3), sodium salt]	1
CC1(C)S[C@@H]2C(NC(=O)C(=C(Cl)Cl)c3cccs3)C(=O)N2[C@H]1C(=O)O (stereo partly shown)	1
Cn1nnnc1SCC1=C(C(=O)O)N2C(=O)C(NC(=O)C(=C(Cl)Cl)c3ccsc3)C2SC1 (stereo not shown)	1
CC(=O)OCC1=C(C(=O)O)N2C(=O)C(NC(=O)C(=C(Cl)Cl)c3ccc(Cl)cc3)[C@H]2SC1 (stereo partly shown)	-1

Req: In plain terms, does CC(=O)OCC1=C(C(=O)O)N2C(=O)C(NC(=O)C(=C(Cl)Cl)c3ccc(Cl)s3)[C@H]2SC1 (stereo partly shown) come in under 20 µg/mL for MIC?
Resp: -1

Req: In plain terms, does Cn1nnnc1SCC1=C(C(=O)O)N2C(=O)C(NC(=O)C(=C(Cl)Cl)c3ccco3)C2SC1 (stereo not shown) come in under 20 µg/mL for MIC?
Resp: 1

Req: In plain terms, does CC(=O)OCC1=C(C(=O)O)N2C(=O)C(NC(=O)Cc3cccs3)C2SC1 (stereo not shown) [Cephalo-thin Na salt, reference compound] come in under 20 µg/mL for MIC?
Resp: -1
